Ref: ChEMBL document CHEMBL5604062

Here, each record is paired with measured pIC50 data.
target: Nonstructural protein 3 (Zika virus); test: Functional biochemical assay to identify treatments for viral infectious disease that targets Zika NS2B-NS3 protease. Utilizing a direct enzyme activity measurement method, reading the fluorescence intensity is used to characterize the relative potency of inhibitors as IC50.; design: species or system PRVABC59
Sequence (A0A024AXB9 whole entry): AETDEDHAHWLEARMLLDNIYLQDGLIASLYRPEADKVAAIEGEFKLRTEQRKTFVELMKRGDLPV
pIC50: −log10 of the molar value.

# CPD_SMILES, EXPERIMENTAL_SYSTEM, pIC50
data = [
    ("CC(C)[C@H](NC(=O)[C@@H]1CCCN1C(=O)OCc1ccccc1)P(=O)(Oc1ccc(F)cc1)Oc1ccc(F)cc1", "Nonstructural protein 3 (Zika virus)", "< 4.00"),
    ("NCCCc1cccc(NC(=O)c2cc(Cl)cc(NC(=O)OCc3ccccc3)c2)n1", "Nonstructural protein 3 (Zika virus)", 4.72),
    ("O=C(Nc1cc(Cl)cc(C(=O)Nc2nccn2C2CNC2)c1)OCc1ccccc1", "Nonstructural protein 3 (Zika virus)", "< 4.00"),
    ("CN(C)Cc1cc(NC(=O)[C@H](NC(=O)OCc2ccccc2)c2ccc(OCc3ccccc3)cc2)sn1", "Nonstructural protein 3 (Zika virus)", "< 4.00"),
    ("O=C(Nc1cc(Cl)cc([C@H]2C[C@@H]2c2ccc3c(c2)CNC3)c1)OCc1ccccc1", "Nonstructural protein 3 (Zika virus)", 4.64),
    ("NCc1cccc(NC(=O)[C@@H](NC(=O)OCc2ccccc2)c2cccc(OCc3cncnc3)c2)c1", "Nonstructural protein 3 (Zika virus)", "< 4.00"),
    ("NCc1cccc(NC(=O)[C@H](NC(=O)C2CCC2)c2ccc(OCc3ccccc3)cc2)c1", "Nonstructural protein 3 (Zika virus)", "< 4.00"),
    ("Cc1c(C(=O)Nc2cc(-c3cccnc3)ccn2)cc(-c2ccccc2)n1C", "Nonstructural protein 3 (Zika virus)", "< 4.60"),
    ("O=C(O)c1cc(Cl)ccc1S(=O)(=O)NC1CCN(c2ncnc3c2CCC3)CC1", "Nonstructural protein 3 (Zika virus)", "< 4.00"),
]
